- System: P-glycoprotein (ABCB1) (Homo sapiens)
- Sequence (P08183 whole entry): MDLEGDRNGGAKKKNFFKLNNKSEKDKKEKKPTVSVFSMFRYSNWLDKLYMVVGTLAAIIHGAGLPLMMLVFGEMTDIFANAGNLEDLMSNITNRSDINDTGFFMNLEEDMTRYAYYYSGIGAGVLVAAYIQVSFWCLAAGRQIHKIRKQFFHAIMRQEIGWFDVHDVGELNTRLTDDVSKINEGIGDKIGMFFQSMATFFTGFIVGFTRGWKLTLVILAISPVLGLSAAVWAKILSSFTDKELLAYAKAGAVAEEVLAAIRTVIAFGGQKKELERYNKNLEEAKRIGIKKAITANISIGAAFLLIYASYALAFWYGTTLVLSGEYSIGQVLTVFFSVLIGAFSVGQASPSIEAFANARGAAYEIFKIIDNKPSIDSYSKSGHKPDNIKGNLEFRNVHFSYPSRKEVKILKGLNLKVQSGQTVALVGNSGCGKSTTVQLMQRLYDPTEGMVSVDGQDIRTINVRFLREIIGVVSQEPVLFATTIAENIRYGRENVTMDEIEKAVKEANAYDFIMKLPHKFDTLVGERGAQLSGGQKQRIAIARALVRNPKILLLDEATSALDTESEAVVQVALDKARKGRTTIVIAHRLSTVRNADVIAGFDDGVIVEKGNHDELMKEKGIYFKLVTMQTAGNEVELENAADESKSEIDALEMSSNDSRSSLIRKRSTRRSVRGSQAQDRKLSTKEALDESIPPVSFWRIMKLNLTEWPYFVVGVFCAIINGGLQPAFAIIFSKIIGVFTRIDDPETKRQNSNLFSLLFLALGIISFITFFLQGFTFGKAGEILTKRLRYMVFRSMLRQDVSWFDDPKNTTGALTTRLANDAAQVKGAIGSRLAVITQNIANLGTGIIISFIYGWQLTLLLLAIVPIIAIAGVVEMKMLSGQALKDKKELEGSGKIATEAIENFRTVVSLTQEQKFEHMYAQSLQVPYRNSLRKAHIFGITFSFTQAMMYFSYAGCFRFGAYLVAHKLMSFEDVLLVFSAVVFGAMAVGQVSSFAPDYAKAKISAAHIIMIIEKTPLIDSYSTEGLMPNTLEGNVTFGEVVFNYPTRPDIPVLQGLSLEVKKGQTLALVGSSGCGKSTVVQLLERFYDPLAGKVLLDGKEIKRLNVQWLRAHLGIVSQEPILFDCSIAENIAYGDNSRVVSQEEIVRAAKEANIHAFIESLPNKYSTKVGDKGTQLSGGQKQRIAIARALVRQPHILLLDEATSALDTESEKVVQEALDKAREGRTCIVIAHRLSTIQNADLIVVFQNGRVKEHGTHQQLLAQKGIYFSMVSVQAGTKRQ
- Method description: Substrate activity at p-glycoprotein (unknown origin) assessed as efflux ratio
- Test settings: not told
Measurement kind: efflux ratio

I = CC(F)(F)[C@@H]1C[C@@](C)(c2cc(NC(=O)c3ccc(OCF)cn3)ccc2F)N=C(N)S1
II = C[C@@]1(c2cc(NC(=O)c3cnc(OCF)cn3)ccc2F)C[C@@H](C(F)F)SC(N)=N1
Please compare: I and II . Report which one has the smaller efflux ratio value. Output the label that corresponds to your choice.
II

====

Hi! I'm sharing some Ki results obtained with Beta-secretase 1 (Homo sapiens, UniProt P56817).
Sequence (P56817 whole entry, the tested form may be a part): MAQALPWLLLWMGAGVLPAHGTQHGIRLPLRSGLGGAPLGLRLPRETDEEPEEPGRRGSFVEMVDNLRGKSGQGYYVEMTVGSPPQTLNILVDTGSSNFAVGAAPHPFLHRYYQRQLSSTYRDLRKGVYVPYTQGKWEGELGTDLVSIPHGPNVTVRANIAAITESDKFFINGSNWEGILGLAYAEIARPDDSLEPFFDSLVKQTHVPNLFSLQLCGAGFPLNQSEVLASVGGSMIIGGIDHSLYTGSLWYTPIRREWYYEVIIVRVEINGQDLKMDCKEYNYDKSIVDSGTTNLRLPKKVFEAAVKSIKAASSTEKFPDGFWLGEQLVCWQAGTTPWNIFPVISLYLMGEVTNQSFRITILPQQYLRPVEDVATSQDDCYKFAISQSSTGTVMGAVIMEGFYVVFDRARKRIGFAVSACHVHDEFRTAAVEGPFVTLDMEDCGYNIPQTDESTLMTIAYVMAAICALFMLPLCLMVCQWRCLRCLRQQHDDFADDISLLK
Measurement kind: Ki (nM)

Sample answers from the record:
# Molecule, Ki (nM)
data = [
    ("COc1cnc2c(Nc3ccc(F)c([C@]4(C)CS(=O)(=O)N(C)C(N)=N4)c3)nccc2c1", 2.6),
    ("CN1C(=N)N[C@]2(C)c3cc(NC(=O)c4ccc(C#N)cn4)ccc3OCC[C@@H]2S1(=O)=O (relative stereo)", 47),
]

A = CN1CC2(C1)C(=N)N[C@](C)(c1cc(NC(=O)c3ccc(Cl)cn3)ccc1F)CS2(=O)=O
B = CN1C(N)=N[C@](C)(c2cc(NC(=S)c3ccc(C#N)cn3)ccc2F)CS1(=O)=O
C = CN1C[C@@H](c2cc(NC(=O)c3ccc(C#N)cn3)ccc2F)N=C(N)C(C)(C)S1(=O)=O
D = CN1C(=N)N[C@]2(C)c3cc(NC(=O)c4ccc(C#N)cn4)ccc3OCC[C@H]2S1(=O)=O (relative stereo)
Could you please sort these 4 entries by Ki from high to low? // format: requested-order list of labels
C, B, A, D
(C: 22 nM, B: 9.1 nM, A: 6.1 nM, D: 1 nM)

====

- System: Beta-secretase 1 (Homo sapiens, UniProt P56817)
- Method description: Inhibition of human BACE1 (1 to 460 residues) expressed in HEK293 cells after 16 to 24 hrs by FRET assay
- Type: cell-based
Measurement kind: IC50 (nM)

a = COc1nc(N2C[C@H]3CSC(N)=N[C@@]3(c3ccns3)C2)nc(C)c1F
b = COc1cnc(C(=O)Nc2ccnc([C@]34CN(c5ncc(F)cn5)C[C@H]3CSC(N)=N4)c2)cn1
When a and b are compared, which has the higher number for IC50? To answer, give the label that identifies your chosen option.
a
(a: 172 nM, b: 0.9 nM)

====

- System: Beta-secretase 1 (Homo sapiens, UniProt P56817)
- Method description: Inhibition of human BACE1 using Biotin-XSEVNLDAEFRHDSGC as substrate incubated for 2 hrs by fluorescence method
Measurement kind: IC50 (nM)

1 = C[C@H]1SC(N)=N[C@](C)(c2cc(NC(=O)c3cnc(F)cn3)ccc2F)C12CC(F)(F)C2
2 = C[C@H]1SC(N)=N[C@](C)(c2cc(NC(=O)c3ccc(OC(F)F)cn3)ccc2F)[C@H]1F
Field: lower IC50 | Options: 1 / 2 Write down the label of the entry you select.
2

====

- System: Beta-secretase 2 (Homo sapiens, UniProt Q9Y5Z0)
- Sequence (Q9Y5Z0 whole entry): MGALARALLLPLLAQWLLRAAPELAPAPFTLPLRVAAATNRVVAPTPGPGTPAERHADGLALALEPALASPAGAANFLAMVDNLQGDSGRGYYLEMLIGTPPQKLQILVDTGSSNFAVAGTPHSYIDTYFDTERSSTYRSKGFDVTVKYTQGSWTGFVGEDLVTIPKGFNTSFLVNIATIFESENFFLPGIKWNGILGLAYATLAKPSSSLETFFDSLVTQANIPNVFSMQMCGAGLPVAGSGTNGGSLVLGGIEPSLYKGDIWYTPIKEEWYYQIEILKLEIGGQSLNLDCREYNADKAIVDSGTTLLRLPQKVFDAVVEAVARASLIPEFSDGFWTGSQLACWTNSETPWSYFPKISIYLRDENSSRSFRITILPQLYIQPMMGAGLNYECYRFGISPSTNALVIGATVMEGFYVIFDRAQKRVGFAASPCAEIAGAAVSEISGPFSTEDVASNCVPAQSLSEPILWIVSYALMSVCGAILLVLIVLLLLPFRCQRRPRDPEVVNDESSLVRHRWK
- Method description: Inhibition of BACE2 (unknown origin) incubated for 450 mins using APP swedish mutant as substrate by FRET assay
Measurement kind: pIC50
On this scale, pIC50 is minus log10 of a concentration expressed in M (mol/L).

# Smiles representation, pIC50
records = [
    ("C[C@@]1(S(C)(=O)=O)CC[C@@](CF)(c2cc(NC(=O)c3ccc(OCF)cn3)ccc2F)N=C1N", 7.78),
    ("C[C@H]1OC[C@]2(c3cc(NC(=O)c4ccc(C#N)cn4)ccc3F)N=C(N)[C@](C)(C#N)C[C@H]12", 7.84),
]

Now, please, on to the next compound.
Identify the measured pIC50 of COc1ccc(C(=O)Nc2ccc(F)c([C@]3(C)CC[C@@](C)(C#N)C(N)=N3)c2)nc1 for Beta-secretase 2 (Homo sapiens, UniProt Q9Y5Z0).
7.18

====

- System: Beta-secretase 1 (Homo sapiens)
- Method description: Inhibition of BACE1 (unknown origin) assessed as reduction in amyloidbeta 40 level after 24 hrs by cell-based sandwich ELISA
pIC50: −log10 of the molar value.
Measurement kind: pIC50

Previously resolved entries follow.
# Smiles representation, System, Reported
measured = [
    ("Cc1cc(Cl)cnc1C(=O)Nc1ccc2c(c1)[C@@]1(C)N=C(N)C(C)(C)S(=O)(=O)[C@@H]1CCO2", "Beta-secretase 1 (Homo sapiens)", 8.22),
    ("NC1=N[C@](CF)(c2cc(NC(=O)c3cnc(Cl)cn3)ccc2F)[C@@H]2C[C@]2(C(F)F)S1", "Beta-secretase 1 (Homo sapiens)", 8.43),
    ("Cc1cc(Cl)cnc1C(=O)Nc1ccc(F)c([C@@]2(C)N=C(N)[C@]3(C)CC[C@H]2S3(=O)=O)c1", "Beta-secretase 1 (Homo sapiens)", 8.70),
]

I = C#CCOc1cnc(C(=O)Nc2cc(F)c(F)c([C@@]3(CF)N=C(N)S[C@H]4C[C@H]43)c2)cn1
II = NC1=N[C@](CF)(c2cc(NC(=O)c3cnc(Cl)cn3)cc(F)c2F)[C@H]2[C@@H](S1)C2(F)F
Please indicate which has the smaller reported pIC50: I , or II . Refer to your chosen item by its label in the answer.
II
(II: 7.95, I: 9.19)

====

- System: UniProt P08183
- Method description: Substrate activity at P-glycoprotein (unknown origin) in MDCK-MDR1cells assessed as efflux ratio incubated over 60 mins by LC-MS/MS analysis
- Test settings: MDCK-MDR1
Measurement kind: efflux ratio at 1 h
API note: the answer field is a bare number with no unit suffix.

Need efflux ratio at 1 h of [2H]C([2H])([2H])Oc1cnc(C(=O)Nc2ccc(F)c([C@@]3(C)N=C(N)[C@@](C)(F)C[C@@H]3F)c2)cn1 , thanks.
0.85

====

- Method description: Brain to plasma partition coefficient, Kp of the compound in Sprague Dawley rat at 30 mg/kg, po
- Format: ADME, organism-based
Measurement kind: Kp
When you answer, write just the number.

Fill in: Kp of Cc1cc(C#N)cnc1C(=O)Nc1ccc(F)c([C@@]2(C)N=C(N)[C@@](C)(F)CC2(F)F)c1 is ___
0.5

====

- System: UniProtKB P56817
- Method description: Inhibition of human BACE1 expressed in HEK293 cells incubated for 16 to 24 hrs by FRET assay
- Type: cell-based
Measurement kind: IC50 (nM)
Quick note: give the figure in nM, leave out the unit.

Give the measured IC50 of CC(F)(F)[C@H]1OC[C@]2(c3cc(NC(=O)c4ccc(C(F)(F)F)cn4)ccc3F)N=C(N)SC[C@H]12 .
11.9

====

- System: Beta-secretase 2 (Homo sapiens)
- Method description: Inhibition of human BACE2 expressed in HEK293 cells incubated for 16 to 24 hrs by FRET assay
- Format: cell-based
Measurement kind: IC50 (nM)
Numeric only. Scale: nM

Given the molecule CC(F)(F)[C@H]1OC[C@]2(c3cc(NC(=O)c4ccc(C(F)(F)F)cn4)ccc3F)N=C(N)SC[C@H]12 , what is its reported IC50?
602

====

- System: Beta-secretase 1 (Homo sapiens)
- Method description: Inhibition of BACE1 in HEK293 cells harboring APP assessed as reduction in amyloidbeta 40 level incubated for 18 to 20 hrs by AlphaLISA Assay
- Format: cell-based
Measurement kind: IC50 (nM)

Here's what some known entries look like.
# Compound, System, Unit of measure, Reported
records = [
    ("CC#CCOc1cnc(C2=Nc3cc([C@]4(C)C[C@@H](C(F)(F)F)OC(N)=N4)c(F)cc3CN2)cn1", "Beta-secretase 1 (Homo sapiens)", "nM", 9),
    ("Cc1cc(C#N)cnc1C(=O)Nc1ccc(F)c([C@]2(C)CS3(=O)=NCCCCC3(C)C(N)=N2)c1 (stereo partly drawn)", "Beta-secretase 1 (Homo sapiens)", "nM", 0.2),
    ("C[C@@]1(c2nc(NC(=O)c3ccc(C#N)cn3)ccc2F)CS2(=O)=NCCCCN2C(N)=N1 (stereo partly drawn)", "Beta-secretase 1 (Homo sapiens)", "nM", 49),
]

I = C[C@@]1(c2nc(NC(=O)c3ccc(C#N)cn3)ccc2F)C[C@@H](C(F)(F)F)OC(N)=N1
II = CN=S1(=O)C[C@@](C)(c2cc(-c3cc(-c4ncc(OC)cn4)no3)ccc2F)N=C(N)N1C (single isomer, unassigned)
III = Cc1cc(C#N)cnc1C(=O)Nc1ccc(F)c([C@]2(C)CS(=O)(=NCC(F)(F)F)N(C)C(N)=N2)c1 (single isomer, unassigned)
IV = Cc1cc(C#N)cnc1C(=O)Nc1ccc(F)c([C@]2(C)CS3(=O)=NCCCCN3C(N)=N2)c1 (stereo partly drawn)
Parameters: sort_field (IC50), sort_dir (desc). Response field: labels, in requested order.
II, I, IV, III
(II: 22 nM, I: 3.4 nM, IV: 2 nM, III: 0.99 nM)
